System: Escherichia coli TOP10
Assay remarks: shrunken log2 fold change of peptide-encoding DNA abundance (4.5 h post-induction vs induction); higher = less antimicrobial activity (less host growth inhibition)
Cond: time post-induction: 4.5 h; library: site-saturation at positions 5, 18, 19, 20
Quantity measured: shrunken log2 fold change

In [3]: df
Out[3]:
             sequence_data          quantity_measured  quantitative_readout
0  RRIRTRPPRLPRPRPRPFCCPRP  shrunken log2 fold change                -0.309
1  RRIRPRPPRLPRPRPRPRSKPRP  shrunken log2 fold change                -0.149
2  RRIRYRPPRLPRPRPRPCAYPRP  shrunken log2 fold change               -0.0775
3  RRIRYRPPRLPRPRPRPYNMPRP  shrunken log2 fold change                 -1.09
4  RRIRGRPPRLPRPRPRPTAMPRP  shrunken log2 fold change                  2.78
5  RRIRGRPPRLPRPRPRPFPIPRP  shrunken log2 fold change                  0.21
6  RRIRCRPPRLPRPRPRPYCGPRP  shrunken log2 fold change                -0.888
7  RRIRYRPPRLPRPRPRPHLRPRP  shrunken log2 fold change                -0.485

---

Test system: Escherichia coli TOP10;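 also: peptides expressed intracellularly from a pBAD plasmid library in pooled LB shake-flask culture, induced with 0.3% L-arabinose, DNA abundance read by NGS, three biological replicates, DESeq2 with apeglm shrinkage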
Assay remarks: shrunken log2 fold change of peptide-encoding DNA abundance (4.5 h post-induction vs induction); higher = less antimicrobial activity (less host growth inhibition)
Cond: time post-induction: 4.5 h; library: site-saturation at positions 5, 18, 19, 20
Quantity measured: shrunken log2 fold change

>>> print(df.to_string())
              sequence_data          quantity_measured  quantitative_readout
 0  RRIRWRPPRLPRPRPRPNCPPRP  shrunken log2 fold change                -0.125
 1  RRIRTRPPRLPRPRPRPAFWPRP  shrunken log2 fold change                  0.26
 2  RRIRERPPRLPRPRPRPICDPRP  shrunken log2 fold change                -0.221
 3  RRIRCRPPRLPRPRPRPEKYPRP  shrunken log2 fold change                -0.209
 4  RRIRQRPPRLPRPRPRPGYFPRP  shrunken log2 fold change                0.0104
 5  RRIRFRPPRLPRPRPRPRWMPRP  shrunken log2 fold change                -0.149
 6  RRIRFRPPRLPRPRPRPEIEPRP  shrunken log2 fold change                0.0594
 7  RRIRKRPPRLPRPRPRPEGWPRP  shrunken log2 fold change                  1.46
 8  RRIRIRPPRLPRPRPRPIFVPRP  shrunken log2 fold change                 -0.28
 9  RRIRDRPPRLPRPRPRPPPNPRP  shrunken log2 fold change                  0.84
10  RRIRQRPPRLPRPRPRPHTFPRP  shrunken log2 fold change                -0.174
11  RRIRFRPPRLPRPRPRPSYKPRP  shrunken log2 fold change                -0.819
12  RRIRRRPPRLPRPRPRPIEYPRP  shrunken log2 fold change                -0.124
13  RRIRDRPPRLPRPRPRPNKGPRP  shrunken log2 fold change              -0.00129
14  RRIRVRPPRLPRPRPRPCKYPRP  shrunken log2 fold change                -0.725
